Provide the reported max response of each item.
test details: qHTS RealTime-Glo MT Cell Viability Assay in HEK293 cells - 40 hour (AID 1224874); further: on the % scale 0 is the no-effect control and ±100 the full control effect; nearly all actives have a fitted effect of over 50% in size
condition parameters: RealTime-Glo luminescence; hits give low values
Results filed as inconclusive are left out. The source made the active and inactive calls. The call rests on the fitted dose curve; in most records, active means well fitted cell-killing curve with a large enough effect in the repeat runs; inconclusive means weak or mixed curves, or effect the other way; inactive means flat fitted curve, though single readings scatter.

Consider `CCCCC=O` . Its measured max response is 2.57% (inactive)

Consider C#CC(O)C(CC)CCCC (centres undefined) . Its measured max response is 11.7% (inactive)

Consider `Cc1nc(-c2ccc(OCC(C)C)c(C#N)c2)sc1C(=O)O` . Its measured max response is -0.381% (inactive)

Consider CCCC(C)C(=O)O (centres undefined) . Its measured max response is -23.4% (inactive)

Consider `C[N+](C)(C)CC[N+]1(C)Cc2c(Cl)c(Cl)c(Cl)c(Cl)c2C1` . Its measured max response is 7.36% (inactive)

Consider CCCCOCC(C)OCC(C)O (centres undefined) . Its measured max response is 2.63% (inactive)

Consider `NC(=O)c1ncn([C@@H]2O[C@H](CO)[C@@H](O)[C@H]2O)c1N` . Its measured max response is -6.56% (inactive)

Consider `NCCNC(=O)c1ccc(Cl)cn1` . Its measured max response is 0.469% (inactive)

Consider NC(CS)C(=O)O (centres undefined) . Its measured max response is 1.35% (inactive)
